src = PubChem BioAssay AID1996

conditionParameters: buffer; pH 7.4; 200.0 µM

compound	solubility kinetic
COC(=O)c1cc(S(=O)(=O)N2CCC(C(N)=O)CC2)oc1C	> 49.6 µg/mL
CCOCCCNc1ccc(N2C(=O)CCCC2=O)cc1[N+](=O)[O-]	> 50.3 µg/mL
CC1CCCC(C)N1C(=O)COC(=O)c1cccs1 (stereo not given)	> 42.2 µg/mL
CCn1c(=O)c2ccccc2n2c(SCC(N)=O)nnc12	> 45.5 µg/mL
Cc1ccc(CNC2CCCCC2)s1.Cl	> 36.9 µg/mL

----------
conditionParameters: buffer; pH 7.4; 200.0 µM

compound	solubility kinetic
O=C(N/C(=C\c1ccccc1)C(=O)N1CCOCC1)c1ccco1	> 49 µg/mL
Cc1ccc(C)c(C(C)NC(=O)C2CC=CCC2C(=O)O)c1 (configuration not stated)	> 45.2 µg/mL
CC1CCN(C(=O)Cn2cc([N+](=O)[O-])ccc2=O)c2ccccc2S1 (configuration not stated)	> 53.9 µg/mL
O=C(CCl)Nc1ccccc1C(=O)c1ccccc1	> 41.1 µg/mL
Cc1ccc(-n2c(C)c(C)c3c(NCCO)ncnc32)cc1	> 44.5 µg/mL
O=C(Nc1ccccc1)N(c1ccccc1)C1C=CS(=O)(=O)C1 (configuration not stated)	> 49.3 µg/mL
O=c1ccc(S(=O)(=O)N2CCCC2)c[nH]1	> 34.2 µg/mL
O=C(CNc1cccc(Cl)c1)c1ccc(Br)cc1	< 0.7 µg/mL
COc1ccc(/C(C)=N/NC2=NCCN2)cc1Cl	> 40 µg/mL
Cc1c(NC(=O)COC(=O)c2ccc(Cl)nc2)c(=O)n(-c2ccccc2)n1C	> 60.1 µg/mL
O=C(Nc1ccc(F)cc1)N1CCCCCC1	> 35.4 µg/mL
O=S(=O)(c1ccc(=S)[nH]c1)N1CCN(Cc2ccccc2)CC1	> 52.4 µg/mL

----------
conditionParameters: buffer; pH 7.4; 200.0 µM
Overview of reported log10(solubility kinetic) across a group of molecules:
measuredEndpoint: log10(solubility kinetic) (log10 of the value in mg/mL)

molecule	log10(solubility kinetic)
COc1ccc(/C=C/C(=O)N2CCN(c3ccccn3)CC2)cc1	-1.86
COc1ccc(OC)c2nc3c(cc12)CCC3	-1.54
COc1ccc(S(=O)(=O)N2CCCCC2)cc1NC(=O)COC(=O)c1ccco1	-2.24
CC(Cl)C(=O)c1ccc2c(c1)CCN2C(=O)C1CC1 (centres undefined)	-2.02
O=C(NC(=S)NCc1ccco1)c1ccc([N+](=O)[O-])cc1	-2.34
O=C(C1COc2ccccc2O1)N1CCN(c2ccc([N+](=O)[O-])cc2)CC1 (centres undefined)	-2.11
CCc1nc2sc3c(=O)[nH]cnc3c2c2c1CSC(C)(C)C2	-1.78
Cn1cccc1/C=C1/C(=O)NC(=O)N(Cc2ccc(F)cc2)C1=O	-2.27
COc1cc(C(=O)NCCNC(=O)c2ccc(C)nc2)cc(OC)c1OC	-1.28
Cc1ccc2nc3cc([N+](=O)[O-])cc([N+](=O)[O-])c3cc2c1	-3.10
NCc1oc(-c2ccccc2)cc1C(=O)O	-1.65
O=C(Nc1cc([N+](=O)[O-])ccc1F)C1CCN(S(=O)(=O)c2cccs2)CC1	-2.36
O=C(CSc1ncnc2sccc12)Nc1ccccc1F	-2.23
COc1ccc(NC(=O)CN(C)C2CCCCC2)cc1Cl	-1.49
CN(C)C(=O)CS(=O)(=O)c1ccc(Cl)cc1	-1.49
O=C(CNC(=O)c1ccccc1F)Nc1ccc2c(c1)CCC2	-2.54
NCCc1nc2ccccc2s1	-1.63
O=C(COC(=O)/C=C/c1ccccc1[N+](=O)[O-])Nc1ccc(S(=O)(=O)N2CCOCC2)cc1	-1.62
Cc1cc(C)cc(OCC(=O)Nc2ccc3c(c2)OCCO3)c1	-2.70
CCOc1ccccc1NC(=O)COC(=O)c1cc(C)oc1C	-2.66
COC(=O)c1ccc(N2CCN(c3ccccc3)CC2)c(N)c1	-3.10

----------
conditionParameters: buffer; pH 7.4; 200.0 µM
measuredEndpoint: solubility kinetic (mg/mL)

compound	measuredEndpoint	measuredResult
Cc1ccc2c(c1)c(=O)c1c3n2CCN(CC#N)C3CC1 (stereo not drawn)	solubility kinetic	0.0377
Cc1cccn2c(=O)cc(COC(=O)C(C)Oc3ccccc3)nc12 (stereo not drawn)	solubility kinetic	0.0468
N#C/C(=C\Nc1ccc(Cl)cn1)S(=O)(=O)c1ccccn1	solubility kinetic	0.0037
O=C(CCc1ccccc1)Nc1nc2c(F)cc(F)cc2s1	solubility kinetic	0.004

----------
Overview of reported solubility kinetic across a group of compounds:
conditionParameters: buffer; pH 7.4; 200.0 µM
measuredEndpoint: solubility kinetic (µg/mL)

compound	measuredEndpoint	u	measuredResult
CCC(=O)N(CCC1(c2ccccc2OC)CCOC(C(C)C)C1)Cc1ccco1 (centres undefined)	solubility kinetic	µg/mL	21.4
COC(=O)c1cccc(NC(=O)c2cccc([N+](=O)[O-])c2)c1	solubility kinetic	µg/mL	3.8
CCOC(=O)COc1cc2oc(=O)cc(C)c2cc1[N+](=O)[O-]	solubility kinetic	µg/mL	3
COc1ccc(Cl)cc1-c1csc(N)n1	solubility kinetic	µg/mL	34.1
CC(C)(C)N(Cc1ccccc1)C(=O)c1cc2ccccc2o1	solubility kinetic	µg/mL	1.1
CCOC(=O)c1cccc(NC(=O)c2cc3ccccc3o2)c1	solubility kinetic	µg/mL	0.7
c1ccc(CN2CCc3nc4ccccc4cc3C2)cc1	solubility kinetic	µg/mL	33.2
CC1(c2cccc(Br)c2)NC(=O)N(CC(=O)Nc2ccc3c(c2)OCCO3)C1=O (centres undefined)	solubility kinetic	µg/mL	67.3
N=c1oc2ccccc2cc1C(=O)Nc1ccc(F)cc1	solubility kinetic	µg/mL	0.6

----------
conditionParameters: buffer; pH 7.4; 200.0 µM

molecule	solubility kinetic
COc1ccccc1C(=O)NC1CC(C)(C)NC(C)(C)C1	> 43.6 µg/mL
C=CCn1c(N2CCOCC2)nc2c1c(=O)[nH]c(=O)n2C	> 43.7 µg/mL
Brc1cc2c(cc1-c1nc3ccccc3s1)OCO2	< 0.7 µg/mL
Cc1ccc(/C=C/C(=O)O)cc1S(=O)(=O)N1CCCCC1	> 46.4 µg/mL
CCCCn1c(N)c(N(CC)C(=O)c2c(C)noc2C)c(=O)[nH]c1=O	> 52.4 µg/mL
c1ccc(Oc2nc(-c3cccnc3)nc3ccccc23)cc1	0.7 µg/mL
CCOc1ccc(-c2n[nH]c(=S)o2)cc1	> 33.3 µg/mL
CC(CCc1ccccc1)NC(=O)COC(=O)c1cccs1 (centres undefined)	> 47.6 µg/mL
CCCC(=O)N1CCN(c2nc3ccc(CC)cc3s2)CC1	13.5 µg/mL
CCOc1ccc(NC(=O)CCNC(=O)c2ccco2)cc1	> 45.3 µg/mL
Cn1c(/C(C#N)=C(\O)c2cccc(F)c2)nc2ccccc21	0.3 µg/mL
COc1cc(C(=O)OCC(=O)NC2CCCC2)cc(OC)c1OC	> 50.6 µg/mL
COc1cccc(C(=O)NCCCNC(=O)c2cccnc2)c1	> 47 µg/mL
COC(=O)c1sccc1S(=O)(=O)Nc1ccc(C)cc1	5 µg/mL

----------
conditionParameters: buffer; pH 7.4; 200.0 µM
measuredEndpoint: solubility kinetic (µg/mL)

compound	measuredResult
CCCCCC(=O)Oc1cccc(N2C(=O)C3CCCCC3C2=O)c1 (centres undefined)	4.3
CCc1ccc(NC(=S)N2CCCC(C(F)(F)F)C2)cc1 (centres undefined)	6.1
COc1cccc(NC(=O)NCCCCc2ccccc2)c1	12.9
C=CCn1c(O)c(C(CC)=NCc2ccc3c(c2)OCO3)c(=O)[nH]c1=O	3
c1ccc(-c2nc(NCc3cccs3)c3ccccc3n2)cc1	0.7
C=C(C)[C@@H]1CC=C(CN2CCC(CCOC)(C(=O)OCC)CC2)CC1	38.7
N#Cc1c(-c2ccccc2Cl)c2c([nH]c1=O)-c1ccccc1OC2	11.6
COc1ccc(C(=O)NCC(C)(C)CNC(=O)c2ccc(OC)cc2)cc1	11
O=C(Nc1ccc2ccccc2c1)c1cccc(F)c1	1.3
NC1=NC(=O)/C(=C/c2ccc(Cl)cc2Cl)S1	1.3
CCOC(=O)c1nsnc1NCCCl	22.7
O=C(c1ccc(Cl)cc1)N1CCC2(CC1)OCCO2	39.6
CC(NC(=O)C(=O)NCc1cccs1)c1ccccc1 (centres undefined)	2.5
O=C(Nc1cc2c(cc1[N+](=O)[O-])OCCO2)c1cccnc1	5.1
COc1ccc2oc(C(=O)OCC(=O)NC3CCCC3)c(C)c2c1	6.7
O=C(Nc1cccc(NC(=O)c2ccco2)c1)c1ccccc1	45.9
CC1CCCCC1NC(=O)COC(=O)COc1ccccc1F (centres undefined)	35.3
CCCCn1c(=S)[nH]c2ccc(N3CCOCC3)cc2c1=O	4.3

----------
conditionParameters: buffer; pH 7.4; 200.0 µM
measuredEndpoint: solubility kinetic

molecule	measuredEndpoint	measuredResult
CCNc1ccc(S(=O)(=O)N2CCCCC2)cn1	solubility kinetic	> 40.4 µg/mL
C/C(=N\NC(=O)c1ccc(Cl)cc1)c1ccccn1	solubility kinetic	> 41.1 µg/mL
O=C(Nc1nc2ccc(Br)cc2s1)c1ccco1	solubility kinetic	< 0.3 µg/mL
Cc1cccc(NC(=O)C2CCN(C(=O)c3ccco3)CC2)c1C	solubility kinetic	> 49 µg/mL
CCOC(=O)C1=C(C)Nc2ccccc2N=C1N	solubility kinetic	> 36.8 µg/mL
Nc1ccc(Oc2ccc3c(c2)C(=O)N(CC2CCCO2)C3=O)cc1 (stereo not given)	solubility kinetic	> 50.8 µg/mL
COc1cccc(NC(=O)CN2C(=O)C(=O)N(C3CCCC3)C2=O)c1	solubility kinetic	> 51.8 µg/mL
Cc1nc(NC(=O)c2c(-c3ccccc3)noc2C)sc1C(=O)N(C)C	solubility kinetic	> 55.6 µg/mL
C=CCN1CCN(C(=O)c2oc3ccccc3c2C)CC1	solubility kinetic	> 42.7 µg/mL
C[C@](N)(Cc1ccc(O)c(O)c1)C(=O)O	solubility kinetic	> 31.7 µg/mL
